Measured values drawn from patent US20130243795A1 for this set.

molecular target: T1, Human CD27 ECD, monomeric soluble (construct limits not stated) (human, UniProt P26842 20-191); assay: Biacore SPR, purified mAb, CD27 ECD
T1 construct: extracellular domain; target of the Biacore assays; also called monomeric soluble CD27; CD27-His
T1 sequence (P26842 20-191): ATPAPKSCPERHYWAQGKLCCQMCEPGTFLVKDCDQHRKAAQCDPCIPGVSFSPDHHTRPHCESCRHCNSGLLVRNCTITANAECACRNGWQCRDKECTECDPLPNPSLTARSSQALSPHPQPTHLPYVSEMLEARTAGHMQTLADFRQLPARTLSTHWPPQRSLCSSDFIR
Recorded Kd, one value per entry.

- BINDER: "M489 (antibody, IgG1, V domains shown, also called H227/L250) VH: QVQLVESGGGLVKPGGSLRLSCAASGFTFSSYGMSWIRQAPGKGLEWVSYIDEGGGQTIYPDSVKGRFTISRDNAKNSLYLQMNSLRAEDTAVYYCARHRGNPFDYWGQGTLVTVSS VL: DIQMTQSPSSLSASVGDRVTITCRASKSVSLDRWSFMHWYQQKPGKAPKLLIYLASNLESGVPSRFSGSGSGTDFTFTISSLQPEDIATYYCQHSRELPWTFGQGTKVEIK"
  Kd / nM: 0.0241
- BINDER: "M41 (antibody, human IgG1, V domains shown, chimeric; also called C2191 parent; C2191 parent chimera) VH: EVKLVESGGGLVKPGGSLKLSCAASGFTFSSYTMSWVRQTPEKRLEWVAYISSGGGNTYYPDSVKGRFTISRDNARNTLYLQMSSLRSEDTAMYYCSRHRGNPFDYWGQGTTLTVSS VL: DIVLTQSPASLAVSLGQRATISCRASKSVSTSGYSFMHWYQQKPGQPPKLLIYLASNLESGVPARFSGSGSGTDFTLNIHPVEEEDAATYYCQHSRELPWTFGGGTKLEIK"
  Kd / nM: 13.7
- BINDER: "M488 (antibody, IgG1, V domains shown, also called H227/L249) VH: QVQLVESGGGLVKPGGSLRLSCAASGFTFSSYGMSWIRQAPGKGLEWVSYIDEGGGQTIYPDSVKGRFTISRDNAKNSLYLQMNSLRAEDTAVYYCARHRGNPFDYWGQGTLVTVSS VL: DIQMTQSPSSLSASVGDRVTITCRASKSVSEGRWSFMHWYQQKPGKAPKLLIYVASRLESGVPSRFSGSGSGTDFTFTISSLQPEDIATYYCQHSRELPWTFGQGTKVEIK"
  Kd / nM: 0.0394
